Form field: pIC50 (one value per entry).
# measured_target: Dog Kidney Na+, K+-ATPase (Canis lupus familiaris, UniProt P50997)
# method: Inhibition of the enzymatic activity of purified Na+,K+-ATPase (hydrolysis of 32P-ATP)
# Format: biochemical
# measurement_conditions: dog kidney enzyme; hydrolysis of 32P-ATP in presence and absence of compound; read-out: Na+, K+-ATPase Inhibition IC50
Structures can show the parent of a compound that is named as a salt.
The value called pIC50 is obtained by taking minus log10 of the concentration in mol/L.

> print(dat)
                                   compound  quantity.name  reported.result
1  COC(=O)C1CC2C3CCC(=O)C3(C)CCC2C2(C)CCC(=NOC3CCNC3)CC12 (mixture of isomers) [I-au, hydrochloride]          pIC50             6.80
2  CC12CCC3C(CC(O[N+](=O)[O-])C4CC(=NOC5CCNC5)CCC43C)C1CCC2=O (mixture of isomers) [I-ap, nitrate hydrochloride]          pIC50             6.42
3  COC1CC2CC(=NOC3CCNC3)CCC2(C)C2CCC3(C)C(=O)CCC3C12 (mixture of isomers)          pIC50             5.23

Please look at the following compound next.
[ask] Which pIC50 is reported for this compound? CC12CCC3C(C(CO)CC4CC(=NOC5CCNC5)CCC43C)C1CCC2=O (mixture of isomers) [I-ch, hydrochloride]
[reply] 6.80

* * *

In this section we review reported pIC50 values for a set of compounds.
# measured_target: Dog Kidney Na+, K+-ATPase (Canis lupus familiaris)
# method: Inhibition of the enzymatic activity of purified Na+,K+-ATPase (hydrolysis of 32P-ATP)
# Format: biochemical
# measurement_conditions: Na+, K+-ATPase Inhibition IC50
Where a name gives a salt, the structure may show the parent alone.
Conceptually, pIC50 converts a concentration in mol/L into minus its log10.

Take a look at these entries with their results.
compound	measured_target	reported_result
CC12CCC3C(C(O)C(CO)C4CC(=NOC5CCNC5)CCC43C)C1CCC2=O (single isomer, unassigned) [I-dl, hydrochloride]	Dog Kidney Na+, K+-ATPase (Canis lupus familiaris)	6.77
CC12CCC3C(CC(=O)C4CC(=NOC5CCNC5)CCC43C)C1CCC2=O (single isomer, unassigned) [I-ag, hydrochloride]	Dog Kidney Na+, K+-ATPase (Canis lupus familiaris)	6.96
CON=C1CC2C3CCC(=O)C3(C)CCC2C2(C)CCC(=NOC3CCNC3)CC12 (single isomer, unassigned) [I-bd, hydrochloride]	Dog Kidney Na+, K+-ATPase (Canis lupus familiaris)	7.74
CC12CCC3C(C1CCC2=O)C1(CC1)CC1CC(=NOC2CCNC2)CCC13C (mixture of isomers) [I-co, hydrochloride]	Dog Kidney Na+, K+-ATPase (Canis lupus familiaris)	7.62
CC12CCC3C(C(=O)CC4CC(=NOC5CCNC5)CCC43C)C1CCC2=O (single isomer, unassigned) [I-cc]	Dog Kidney Na+, K+-ATPase (Canis lupus familiaris)	6.24
C#CC1CC2C3CCC(=O)C3(C)CCC2C2(C)CCC(=NOC3CCNC3)CC12 (mixture of isomers) [I-bb, hydrochloride]	Dog Kidney Na+, K+-ATPase (Canis lupus familiaris)	6.96
CC12CCC3C(CC(=O)C4CC(=NOC5CCCNC5)CCC43C)C1CCC2=O (mixture of isomers) [I-aj, hydrochloride]	Dog Kidney Na+, K+-ATPase (Canis lupus familiaris)	4.48
C[C@]12CC[C@@H](/C=C\[C@@H]3CCNC3)CC1C(=O)C[C@@H]1[C@@H]2CC[C@]2(C)C(=O)CC[C@@H]12 (some centres unmarked) [I-de, formate]	Dog Kidney Na+, K+-ATPase (Canis lupus familiaris)	6.41
CC1CC2CC(=NOC3CCNC3)CCC2(C)C2CCC3(C)C(=O)CCC3C12 (centres unmarked) [I-cm, hydrochloride]	Dog Kidney Na+, K+-ATPase (Canis lupus familiaris)	6.85
CC1CC2CC(=NOC3CCNC3)CCC2(C)C2CCC3(C)C(=O)CCC3C12 (mixture of isomers) [I-cl, hydrochloride]	Dog Kidney Na+, K+-ATPase (Canis lupus familiaris)	6.82

[ask] Recall the recorded pIC50 for CC12CCC3C(CC(=O)C4CC(=NOC5CNC5)CCC43C)C1CCC2=O (mixture of isomers) with Dog Kidney Na+, K+-ATPase (Canis lupus familiaris) and state it.
[reply] 6.59

[ask] Entry C=C1CC2C3CCC(=O)C3(C)CCC2C2(C)CCC(=NOC3CCNC3)CC12O (racemic) please
[reply] 6.32

[ask] Also CC12CCC3C(CC(=C(F)F)C4CC(=NOC5CCNC5)CCC43C)C1CCC2=O (mixture of isomers) [I-az, hydrochloride] , if possible.
[reply] 7.68

[ask] Follow-up item: C[C@]12CC[C@H](OC(=O)C3CCNCC3)CC1C(=O)C[C@@H]1[C@@H]2CC[C@]2(C)C(=O)CC[C@@H]12 (some centres unmarked) [I-cw, hydrochloride]
[reply] 4.96
